Please go through the items and note down their interaction score.
Molecular target: T1, 4H3601-bA
T1 chain: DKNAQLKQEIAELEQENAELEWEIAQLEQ
Assay: two-hybrid library CCNG1;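 further: natural log of median RNA to DNA barcode read ratio; higher means stronger binding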
Answers are plain numbers.

# annotated cases, reported interaction score shown
| binder | assayValue |
| --- | --- |
| DENAQLEQEIAELEQKIAELKWKNAQLKQ [4H1072-bA] | 0.34 |
| DKNAQLKQEIAELEQEIAELEWKNAQLKQ [4H3592-bA] | -0.03 |
| DENAQLEQKIAELKQKNAELKWKIAQLKQ [4H1406-bA] | 1.83 |

Could you report interaction score for every entry in the following list?
1. DKNAQLKQEIAELEQENAELEWEIAQLEQ [4H3601-bA]
2. DENAQLEQKIAELKQKIAELKWENAQLEQ [4H1387-bA]
3. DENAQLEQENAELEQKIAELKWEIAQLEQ [4H1193-bA]

[reply]
-0.859
-0.539
-0.992

Cited source for all entries: paper PMC10397247
